# credit: patent US6911465B1

Target: MCP-1 receptor B (CCR2B) (Homo sapiens)
Construct: expressed in transfected cells; membrane fragments
Sequence (P41597 1-360 isoform P41597-2): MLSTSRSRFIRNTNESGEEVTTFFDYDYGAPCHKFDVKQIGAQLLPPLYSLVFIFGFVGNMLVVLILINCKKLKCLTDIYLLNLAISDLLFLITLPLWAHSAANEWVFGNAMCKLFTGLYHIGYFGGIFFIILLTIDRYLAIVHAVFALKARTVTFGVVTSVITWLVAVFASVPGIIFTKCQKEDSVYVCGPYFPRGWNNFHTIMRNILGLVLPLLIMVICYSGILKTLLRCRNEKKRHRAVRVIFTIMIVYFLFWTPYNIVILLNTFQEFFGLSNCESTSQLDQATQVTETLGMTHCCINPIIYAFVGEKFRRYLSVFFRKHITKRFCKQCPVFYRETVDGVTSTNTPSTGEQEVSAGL
Assay: hMCP-1 receptor binding assay (125I-MCP-1, CHO-CCR2B cell membranes)
Conditions: competition with 100 pM labelled MCP-1, CHO-CCR2B membranes, 0.01-50 μM; read-out: IC50 in hMCP-1 receptor binding assay
PROPERTY: IC50 (nM)

compound_structure_string=O=C(CN1CCOCC1)Nc1cccc2c1cc(C(=O)O)n2Cc1ccc(Cl)c(Cl)c1 system_under_test="MCP-1 receptor B (CCR2B) (Homo sapiens)" meas_value=1700
